assay: Cellular viability qHTS for adrenocortical cancer (ACC) cell line SW-13 (AID 1963989); details: SW-13 ACC cells viability, CellTiter-Glo, 48 h; stronger effect = lower value;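 further: cells grown in serum-free medium with ITS supplement; on the % scale 0 is the no-effect control and ±100 the full control effect; nearly all actives have a fitted effect of over 65% in size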
Inconclusive results are not listed.
So I've got a bunch of compounds here, and I need their activity (max response) values.
Answers are plain numbers, in %.

Completed entries (count: 10):
COMPOUND: Cc1cccc(C)c1NC(=O)c1ccc(N)cc1
MEASUREMENT UNIT: %
VALUE REPORTED: 6.32
--
COMPOUND: COc1cc2[nH]c(=O)[nH]c(=O)c2cc1OC
MEASUREMENT UNIT: %
VALUE REPORTED: 11.4
--
COMPOUND: CCCCOc1ccc(C(=O)Nc2ccc(F)cc2F)cc1
MEASUREMENT UNIT: %
VALUE REPORTED: -9.55
--
COMPOUND: CO[C@@]1(NC(=O)CSC[C@@H](N)C(=O)O)C(=O)N2C(C(=O)O)=C(CSc3nnnn3C)CS[C@@H]21
MEASUREMENT UNIT: %
VALUE REPORTED: -7.39
--
COMPOUND: CCCOC(=O)c1ccccc1
MEASUREMENT UNIT: %
VALUE REPORTED: 11.8
--
COMPOUND: CCCCCCCCCCCCc1ccc(S(=O)(=O)Nc2nncs2)cc1
MEASUREMENT UNIT: %
VALUE REPORTED: -13.1
--
COMPOUND: O=C(O)c1[nH]n(-c2ccc(S(=O)(=O)O)cc2)c(=O)c1N=Nc1ccc(S(=O)(=O)O)cc1
MEASUREMENT UNIT: %
VALUE REPORTED: 6.82
--
COMPOUND: CC1=C(c2ccc(O)cc2)[C@H](c2ccc(OCCN3CCCCC3)cc2)Oc2cc(O)ccc21
MEASUREMENT UNIT: %
VALUE REPORTED: -12
--
COMPOUND: COc1cc2nc(Cl)nc(N)c2cc1OC
MEASUREMENT UNIT: %
VALUE REPORTED: 1.23
--
COMPOUND: CC(=O)N(CC(=O)N(C)C)c1ccccc1
MEASUREMENT UNIT: %
VALUE REPORTED: -5.65

// input: 7 compounds below; output: activity (max response) for each
1. NS(=O)(=O)c1ccc(N2CCCCS2(=O)=O)cc1
2. COc1ccc(C(=O)c2ccccc2O)c(O)c1
3. CC(=O)NC(Cc1ccccc1)C(=O)O (centres undefined)
4. COc1nc(N)nc2c1ncn2[C@@H]1O[C@H](CO)[C@@H](O)[C@@H]1O
5. Nc1c2c(nc3ccccc13)CCCC2O (centres undefined)
6. Oc1ccccc1-c1nnco1
7. CC(C)Nc1cccnc1N1CCN(C(=O)c2cc3cc(NS(C)(=O)=O)ccc3[nH]2)CC1

16.4
11.3
-3.3
-9.37
13
12.7
-10.3

----------
Assay: Viability qHTS for spleen associated tyrosine kinase inhibitor (SYKi) naive MV4-11 cells (AID 1963823); further: nearly all actives have a fitted effect of over 40% in size
Settings: MV4-11 AML viability, CellTiter-Glo luminescence, 72 h; series mostly up to 45 µM
Description: Department of Medicine, Hematology/Oncology University Hospital Frankfurt, Germany. Trials have shown promising clinical activity of the selective SYK inhibitor entospletinib in patients with high expressing HOXA9/MEIS1 acute leukemias. […] 7; Detection; Luminescence; ViewLux plate reader (PerkinElmer). […] 1. Quantitative high-throughput screening (qHTS) of small molecule compounds was conducted on naive SYKi MV4-11 cell line. […] 7. Luminescence was measured on a ViewLux plate reader (PerkinElmer).
Inconclusive results are not listed. Active and inactive are the calls of the source. Calls come from the whole dose curve; as a rule, active = well fitted cell-killing curve with a large enough effect; inconclusive = small, poorly fitted or top-dose-only effect, or effect the other way; inactive = no such curve, though single readings can be large or run the other way.
Reply using exactly one outcome from active, inactive

These recorded examples may help you get a feel for the data.
MOLECULE: O=c1cc(CO)occ1O
QUALITATIVE LABEL: inactive

MOLECULE: CC(C)(NS(=O)(=O)c1ccc2c(Cl)cnc(N=C(N)N)c2c1)C(=O)O
QUALITATIVE LABEL: inactive

MOLECULE: CCN(CC)CCOC(=O)C1(c2ccccc2)CCCC1
QUALITATIVE LABEL: inactive

What outcome does the record of this test show for `C=C1CC[C@@H]2C(C)(C)CCC[C@@]2(C)[C@@H]1CC/C(=C/C(=O)OC)COC(C)=O` ? inactive

What outcome does the record of this test show for `CC(C)=CCC[C@](C)(O[C@@H]1O[C@H](CO[C@@H]2OC[C@H](O)[C@H](O)[C@H]2O)[C@@H](O)[C@H](O)[C@H]1O)[C@H]1CC[C@]2(C)[C@@H]1[C@H](O)C[C@@H]1[C@@]3(C)CC[C@H](O[C@@H]4O[C@H](CO)[C@@H](O)[C@H](O)[C@H]4O[C@@H]4O[C@H](CO)[C@@H](O)[C@H](O)[C@H]4O)C(C)(C)[C@@H]3CC[C@]12C` ? inactive

What outcome does the record of this test show for `Cc1ccc(S(=O)(=O)Nc2cc(C(F)(F)F)ccc2C(=O)Nc2nc(-c3ccccc3)cs2)cc1` ? active

What outcome does the record of this test show for `O=C(O)CCCCCC(=O)NN=C1CCCC1` ? inactive

What outcome does the record of this test show for `Nc1ccn([C@@H]2O[C@H](CO)[C@@H](O)[C@H]2O)c(=O)n1` ? inactive

What outcome does the record of this test show for `CN(C)CCCOC1(Cc2ccccc2)CCCCCC1` ? inactive

What outcome does the record of this test show for COc1cc(C(O)C2COC(c3ccc(OC4OC(CO)C(O)C(O)C4O)c(OC)c3)C2CO)ccc1O (configuration not stated) ? active

What outcome does the record of this test show for `CCc1c(-c2ccccc2)c(-c2ccccc2)nn1-c1ccccc1-c1cccc(OCC(=O)O)c1` ? inactive

----------
test: Quantitative highthroughput screen to assess conditional lethalithy of SEM cells grown in RPMI1640 with dialyzed fetal bovine serum (RPMI+ds) (AID 1963884); details: SEM B-ALL cells, RPMI+dialyzed FBS, CellTiter-Glo viability, 48 h; series mostly up to 45.8 µM; further: nearly all actives have a fitted effect of over 35% in size; further: potency means the concentration at half of the fitted maximal effect;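 on viability: 100% = DMSO control wells and 0% = empty wells without cells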
Results filed as inconclusive are left out. Active and inactive are the calls of the source. Calls follow the shape of the dose curve; as a rule, active = well fitted cell-killing curve with a large enough effect; inconclusive = small, poorly fitted or top-dose-only effect, or effect the other way; inactive = no such curve, though single readings can be large or run the other way.
RECORDED METRIC: Potency

Completed entries (count: 4):
COMPOUND: C[N+]1(C)[C@@H]2CC(OC(=O)[C@H](CO)c3ccccc3)C[C@H]1[C@H]1O[C@@H]12 (stereo not given in full)
VALUE REPORTED: inactive

COMPOUND: CC(C)C[C@H](NC(=O)[C@H](Cc1ccccc1)NC(=O)c1cnccn1)B(O)O
VALUE REPORTED: 16.6 nM (active)

COMPOUND: COc1cc2c(N3CCN(C(=O)Nc4ccc(OC(C)C)cc4)CC3)ncnc2cc1OCCCN1CCCCC1
VALUE REPORTED: 132 nM (active)

COMPOUND: CCCNCC(O)COc1ccccc1C(=O)CCc1ccccc1 (stereo not given)
VALUE REPORTED: inactive

Consider `C[C@@H]1CN(CC(=O)N2CC(C)(C)c3ncc(Cc4ccc(F)cc4)cc32)[C@@H](CN2CCOC[C@H]2C)CN1` . Its measured Potency is inactive

----------
test: Quantitative highthroughput screen to assess conditional lethalithy of P12 Ichikawa cells grown in RPMI1640 with dialyzed fetal bovine serum (RPMI+ds) (AID 1963880); details: ATP luminescence, 48 h; P12-Ichikawa viability; series mostly up to 45.8 µM; further: nearly all actives have a fitted effect of over 35% in size;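 on viability: 100% = DMSO wells and 0% = empty wells on each plate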
Inconclusive results are not listed. The source made the active and inactive calls. The call rests on the fitted dose curve; in most records, active means well fitted cell-killing curve with a large enough effect; inconclusive means small, poorly fitted or top-dose-only effect; inactive means flat fitted curve, though single readings scatter.
Reply using exactly one outcome from class 1 for active, class 0 for inactive

COMPOUND: CCOc1cc2ncc(C#N)c(Nc3ccc(OCc4ccccn4)c(Cl)c3)c2cc1NC(=O)C=CCN(C)C
QUALITATIVE LABEL: class 1

What outcome does the record of this test show for `C=CCc1cccc(C=NNC(=O)CN2CCN(Cc3ccccc3)CC2)c1O` ? class 1

What outcome does the record of this test show for `COc1ccc(Nc2cc(-c3cnc(N)nc3)nc(N3CCOCC3)n2)cn1` ? class 1

What outcome does the record of this test show for `Cc1cnc(C(=O)O)c[n+]1[O-]` ? class 0

What outcome does the record of this test show for `COc1ccc(C=Cc2cc(OC)c(OC)c(OC)c2)cc1NC(=O)[C@H](N)CO` ? class 1

What outcome does the record of this test show for COc1cc(O)c2c(c1)C1OC1C[C@H](O)[C@H](O)C(=O)C=CC[C@H](C)OC2=O (some centres not stated) ? class 1

What outcome does the record of this test show for `N=C1SC(=Cc2ccc(-c3ccc4c(c3)C(=O)NC4=O)o2)C(=O)N1c1ccc(Br)cc1` ? class 0

What outcome does the record of this test show for `Cc1cc(CS(=O)(=O)c2ccccc2)cc(OCc2ccc(CN3CCC[C@H]3CO)cc2)c1` ? class 1

What outcome does the record of this test show for `CN(Cc1cnc2nc(N)nc(N)c2n1)c1ccc(C(=O)N[C@@H](CCC(=O)O)C(=O)O)cc1` ? class 1

----------
experiment: Viability qHTS for spleen associated tyrosine kinase inhibitor (SYKi) naive MV4-11 cells (AID 1963823); conditions: MV4-11 AML viability, CellTiter-Glo luminescence, 72 h; series mostly up to 45 µM; further: nearly all actives have a fitted effect of over 40% in size
Records with an inconclusive call do not appear. The source made the active and inactive calls. The call rests on the fitted dose curve; in most records, active means well fitted cell-killing curve with a large enough effect; inconclusive means small, poorly fitted or top-dose-only effect, or effect the other way; inactive means no such curve, though single readings can be large or run the other way.
Reply using exactly one outcome from active, inactive

These recorded examples may help you get a feel for the data.
COMPOUND: O=C([O-])C[O-].[Pt+2]
QUALITATIVE LABEL: inactive
//
COMPOUND: CN1CCC(=C2c3ccccc3CCc3sccc32)CC1
QUALITATIVE LABEL: active
//
COMPOUND: CC(=O)OCC(=O)[C@@]1(O)CC[C@H]2[C@@H]3CCC4=CC(=O)CC[C@]4(C)[C@H]3C(=O)C[C@@]21C
QUALITATIVE LABEL: inactive

What outcome does the record of this test show for `c1ccc2c(-c3cnn4cc(-c5ccc(N6CCNCC6)cc5)cnc34)ccnc2c1` ? active
